study-target: T1, His-tagged FLT3 extracellular domain (UniProt P36888 27-543, limits assumed)
T1 construct: extracellular domain; also called c-Kit family member; not shown: His tag
T1 sequence (looked up): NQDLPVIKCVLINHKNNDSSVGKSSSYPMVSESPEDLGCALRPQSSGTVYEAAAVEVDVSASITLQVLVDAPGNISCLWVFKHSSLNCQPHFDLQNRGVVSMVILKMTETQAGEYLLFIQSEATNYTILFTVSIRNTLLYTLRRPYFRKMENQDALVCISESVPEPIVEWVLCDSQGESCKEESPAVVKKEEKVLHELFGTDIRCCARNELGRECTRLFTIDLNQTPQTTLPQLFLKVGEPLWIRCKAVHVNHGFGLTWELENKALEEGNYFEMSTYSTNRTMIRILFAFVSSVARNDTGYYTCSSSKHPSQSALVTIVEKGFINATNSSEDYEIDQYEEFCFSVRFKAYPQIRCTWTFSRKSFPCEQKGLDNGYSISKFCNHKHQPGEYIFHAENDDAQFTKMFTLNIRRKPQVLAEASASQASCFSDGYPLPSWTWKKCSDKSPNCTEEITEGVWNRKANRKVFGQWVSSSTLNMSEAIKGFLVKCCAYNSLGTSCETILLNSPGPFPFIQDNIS
experiment: ELISA, His-tagged extracellular domain coated
measure: binding result

hSR1-6 (antibody, human IgG1, kappa, V domains shown, also called humanized SR1-6; hSR1-H3 / hSR1-L2r) VH: QVQLVQSGAEVKKPGASVKMSCKASGYTFTSYNMHWVRQAPGQGLEWIGVIYSGNGDTSYAQKFQGRATLTADTSTSTAYMELSSLRSEDTAVYYCARERDTRFGNWGQGTLVTVSS VL: DIQLTQSPSSLSASVGDRATITCRASESVDIYGNSFMHWYQQKPGKAPKLLIYLASNLESGVPSRFSGSGSRTDFTLTISSVQPEDFATYYCQQNNEDPYTFGQGTKLEIKR | no binding
hSR1-2 (antibody, human IgG1, kappa, V domains shown, also called humanized SR1-2; hSR1-H3 / hSR1-L2) VH: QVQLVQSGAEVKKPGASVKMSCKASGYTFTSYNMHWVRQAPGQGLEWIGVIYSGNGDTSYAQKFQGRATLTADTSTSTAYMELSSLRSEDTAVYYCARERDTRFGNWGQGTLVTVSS VL: DIQLTQSPSSLSASVGDRATITCRASESVDIYGNSFMHWYQQKPGKAPKLLIYLASNLESGVPSRFSGSGSGTDFTLTISSVQPEDFATYYCQQNNEDPYTFGQGTKLEIKR | no binding
